Data provenance: patent US20250376535A1

# Assayed system: T1, recombinant human OX40-Fc (human, UniProt P43489 29-214)
# T1 construct: also called rh-OX40-Fc; human OX40 hFC (R & D systems)
# T1 sequence: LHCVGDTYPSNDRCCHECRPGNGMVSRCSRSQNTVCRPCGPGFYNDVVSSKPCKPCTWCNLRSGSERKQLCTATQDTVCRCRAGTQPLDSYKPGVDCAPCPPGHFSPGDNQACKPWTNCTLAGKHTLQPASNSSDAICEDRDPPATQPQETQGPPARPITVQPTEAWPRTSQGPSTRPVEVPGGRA
# Protocol notes: ELISA, OX40-Fc coated, VHH at 0.32 nM
Measured endpoint: OD450

Solved entries:
pgXX88-SZ-4 (VHH, not shown: small tags and cut ends, also called ppXX88-SZ-4) VHH: QVQLVESGGGLAQPGSSLRLSCTASGTVFSILSATWFRQAPGKAHEARELVAFISSDGVSMHADSVKGRFTISRDNAASTVYLQMDNLQPEDTAVYFCKLSNSMMSLEYWGRGTQVTVSS : 0.126
pgXX88-10 (VHH, not shown: small tags and cut ends) VHH: EVQLVESGGGLVQAGESLRLSCSASGSIRLNAVGWFRQAPVNQRLMVATITHNNSTNYADSVQGRFTIARDDAKNTVTLQMNSLKPEDTAVYMCKVYQLPVPISSHDDYWGQGTQVTVSS : 0.993
pgXX88-83 (VHH, not shown: small tags and cut ends) VHH: EVQLVESGGGLVQTGDSLRLSCAALGGTPSTYAIGWFRQAAGKELQFVARITWNGDTWYADALPGRVAISRDNAKKTVYLQMNNLKPEDTAEYICAADVSEFRDIPNRDSRANYRYWGQGTQVTVSS : 0.072
pgXX88-60 (VHH, not shown: small tags and cut ends) VHH: EVQLVESGGGLAQPGGSLRLSCAASGFTFSNYAMGWYRQAPGKEREFVAAIDWSTNALLYGDSVKGRFTISRDNAKNTVFLQMSGLKPEDTALYYCAADRAYHTVVLGPPEGMDYWGKGTQVTVSS : 0.596
pgXX88-5 (VHH, not shown: small tags and cut ends) VHH: QVQLVESGGGLVQAGGSLRLSCAASGGTFSTYAMGWFRQAPGKEPQFVARITWSGYTLYTEPVQGRFAISRDNAKNTVYLQMNSLKPEDTAEYFCAADSSEFRDIPNRDSRANYRYWGQGTQVTVSS : 0.058

(P) pgXX88-16 (VHH, not shown: small tags and cut ends) VHH: QVQLVESGGGLVQAGESLNLSCSASGSIRNNAVAWFRQGPGNQRLRVAAITNTGTTDYADSVQGRFSIARDNAENTVTLQMNSLKPEDTAIYYCKIYTLPVPISSHDDTWGQGTQVTVSS
(Q) pgXX88-27 (VHH, not shown: small tags and cut ends) VHH: EVQLVESGGGLVQPGGSVTLSCATSKDTFSRYHMGWFRQAAGKEREFVAAIANTGTTTDYADFVKGRFTISRDSAKNTVYLQMDSLKVEDTAMYYCVVGSQFMSYDYWGQGTQVTVSS
(R) pgXX88-81 (VHH, not shown: small tags and cut ends) VHH: EVQLVESGGGLAQPGSSLRLSCTASGTVFSILSATWFRQAPGKAHEARELVAFISSDGVSMHADSVKGRFTISRDNAKSTVYLQMDNLQPEDTAAYYCKLSNSMMGMEYWGRGTQVTVSS
[ask] Sort by OD450, descending. Answer by listing the labels in the order asked for.
[reply] P, R, Q
